Origin of values: patent US11241440B2

Test: Cellular viability, CellTiter Glo (Table V, cells not stated)
Format: cell-based
Conditions: human; 100 μM; relative to DMSO control
From the text: All assays for assessing anti-HIV activity were taken in parallel to determine cellular viability of the culture in the presence or absence of different concentrations of the isolated molecule. […] All data are expressed as percentage relative to a control with DMSO at the same concentration. […]
MEASURED ENDPOINT: viability at 100 µM
Put down the number, then write its unit next to it.

Input line: Look up and state reported viability at 100 µM for CCCCCC1=NN(C(=O)CCO)OC(CCCCC)C1 (stereo not shown)
Output line: 0%

----------
system: T98G; assay: MTT assay; assay type: cell-based; conditions: Homo sapiens, 48 hours
MEASURED ENDPOINT: pIC50
Conceptually, pIC50 converts a concentration in mol/L into minus its log10.

Input line: Look up and state reported pIC50 for CCCCCC1=NN(C(=O)CCO)OC(CCCCC)C1 (stereo not shown)
Output line: 6.97
